This collection of values is drawn from patent US6858638B2.

# inhibition at 10 µM annotations
Measured target: human IGF1R cytoplasmic domain (Homo sapiens, UniProt P08069)
Construct: The human IGF1R cytoplasmic domain was cloned; made in house; host or cells: SF21 insect cells (baculovirus)
Sequence (P08069 960-1367 limits assumed): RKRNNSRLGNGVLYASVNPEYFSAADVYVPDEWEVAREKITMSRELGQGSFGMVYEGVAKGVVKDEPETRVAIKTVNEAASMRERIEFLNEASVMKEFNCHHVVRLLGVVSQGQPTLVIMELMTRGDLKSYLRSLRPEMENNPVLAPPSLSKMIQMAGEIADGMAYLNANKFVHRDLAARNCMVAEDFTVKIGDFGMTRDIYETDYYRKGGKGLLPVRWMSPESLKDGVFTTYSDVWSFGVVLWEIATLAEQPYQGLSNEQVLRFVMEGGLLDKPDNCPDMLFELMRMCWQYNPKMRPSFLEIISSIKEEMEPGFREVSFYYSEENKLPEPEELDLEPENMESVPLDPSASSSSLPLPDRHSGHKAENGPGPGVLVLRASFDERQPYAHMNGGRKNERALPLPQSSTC
Experimental protocol: IGF1R autophosphorylation inhibition, time resolved fluorescence (HTRF) assay
Assay type: biochemical
Recorded conditions: 10 μM; read-out: IGF1R % inhib at 10 μM
Number in %, nothing else.

# annotated cases, reported inhibition at 10 µM shown
Compound: CS(=O)(=O)c1ccc(S(=O)(=O)Nc2ccc3[nH]nc(-c4ccccc4)c3c2)cc1 [Example 155]
inhibition at 10 µM (%): 50
--
Compound: N#Cc1cccc(S(=O)(=O)Nc2ccc3[nH]nc(-c4ccccc4)c3c2)c1 [Example 154]
inhibition at 10 µM (%): 75
--
Compound: CS(=O)(=O)c1ccccc1S(=O)(=O)Nc1ccc2[nH]nc(-c3ccc(N)cc3)c2c1 [Example 70]
inhibition at 10 µM (%): 85
--
Compound: CS(=O)(=O)c1ccccc1S(=O)(=O)Nc1ccc2[nH]nc(-c3ccc(F)cc3)c2c1 [Example 33]
inhibition at 10 µM (%): 94

Return inhibition at 10 µM for the following compound: CS(=O)(=O)c1ccccc1S(=O)(=O)Nc1ccc2[nH]nc(-c3cc(Cl)cc(Cl)c3)c2c1 [Example 168] 50

Return inhibition at 10 µM for the following compound: O=S(=O)(Nc1ccc2[nH]nc(-c3ccccc3)c2c1)c1ccccc1 [Example 112] 84

Return inhibition at 10 µM for the following compound: CS(=O)(=O)c1ccccc1S(=O)(=O)Nc1ccc2[nH]nc(-c3cc4ccccc4s3)c2c1 [Example 65] 63

Return inhibition at 10 µM for the following compound: O=S(=O)(Nc1ccc2[nH]nc(-c3cc4ccccc4[nH]3)c2c1)c1ccccc1OC(F)(F)F [Example 84] 94

Return inhibition at 10 µM for the following compound: CCc1ccc(-c2n[nH]c3ccc(NS(=O)(=O)c4ccccc4S(C)(=O)=O)cc23)cc1 [Example 193] 65
